Value source: patent US20240301071A1

# SUBJECT_OF_TEST: T1, histidine-tagged human SIRPA v1 (Novoprotein) (human, UniProt P78324 31-370, limits assumed)
# T1 construct: bought, soluble; also called huSIRPA; soluble huSIRPA; not shown: histidine tag
# ASSAY_DETAILS: BLI (Octet)
MEASURED_QUANTITY: fold increase in affinity relative to parental h3F9

Challenge: Give the value of fold increase in affinity relative to parental h3F9 reported for the following: 3F9-12 (antibody, human IgG1, V domains shown, also called mAb 3F9-12) VH: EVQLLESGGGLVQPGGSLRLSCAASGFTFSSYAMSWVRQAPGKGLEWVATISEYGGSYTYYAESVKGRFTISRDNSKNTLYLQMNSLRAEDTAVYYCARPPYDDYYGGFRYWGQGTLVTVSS VL: DIQLTQSPSSLSASVGDRVTITCRASKSVSSGGYSYMHWYQQKPGKAPKLLIYLASNLESGVPSRFSGSGSGTDFTLTISSVQPEDFATYYCQHNRELPPTFGQGTKLEIK
Response given: ~10 fold
